target: UniProtKB P37059; assay: Inhibition of recombinant human 17beta-HSD2 expressed in HEK293 cells using estradiol as substrate after 10 mins in presence of radiolabeled tracer substrate by scintillation counting method
Sequence (P37059 whole entry): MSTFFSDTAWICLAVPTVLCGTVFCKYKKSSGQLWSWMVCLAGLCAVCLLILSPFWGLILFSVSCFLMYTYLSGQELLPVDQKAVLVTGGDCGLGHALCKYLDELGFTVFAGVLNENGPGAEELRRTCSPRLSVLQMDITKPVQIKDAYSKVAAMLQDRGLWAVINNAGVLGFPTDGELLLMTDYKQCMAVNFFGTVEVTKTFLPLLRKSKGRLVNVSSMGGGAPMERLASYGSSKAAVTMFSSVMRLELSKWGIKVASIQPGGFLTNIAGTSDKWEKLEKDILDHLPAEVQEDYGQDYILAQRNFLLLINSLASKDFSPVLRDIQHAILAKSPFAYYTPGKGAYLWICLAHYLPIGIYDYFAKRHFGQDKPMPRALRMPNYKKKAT
Catalogue of compounds with associated IC50
Endpoint label: IC50

CC(C)(C)c1ccc(S(=O)(=O)Nc2cc(Cl)ccc2N)cc1 :: 5.58 µM
CC(C)(C)c1ccc(S(=O)(=O)Nc2cc(Cl)c(Cl)cc2N)cc1 :: 4.65 µM
Cc1ccc(NS(=O)(=O)c2ccc(C(C)(C)C)cc2)c(O)c1 :: 4.4 µM
CC(C)(C)c1ccc(S(=O)(=O)Nc2c(O)ccc3ccccc23)cc1 :: 2.9 µM
Cc1ccc(O)c(NS(=O)(=O)c2ccc(C(C)(C)C)cc2)c1 :: 4.09 µM
Cc1cc(C)c(O)c(NS(=O)(=O)c2ccc(C(C)(C)C)cc2)c1 :: 5.19 µM
CC(C)(C)c1ccc(S(=O)(=O)Nc2ccccc2O)cc1 :: 1.23 µM
CC(C)(C)c1ccc(S(=O)(=O)Nc2cc(-c3ccccc3)ccc2O)cc1 :: 1.25 µM
CC(C)(C)c1ccc(S(=O)(=O)Nc2cc(Cl)ccc2O)cc1 :: 0.8 µM
